# target_or_system: Cytochrome P450 2C19 (Homo sapiens) (UniProt P33261)
# Sequence (P33261 whole entry, looked up): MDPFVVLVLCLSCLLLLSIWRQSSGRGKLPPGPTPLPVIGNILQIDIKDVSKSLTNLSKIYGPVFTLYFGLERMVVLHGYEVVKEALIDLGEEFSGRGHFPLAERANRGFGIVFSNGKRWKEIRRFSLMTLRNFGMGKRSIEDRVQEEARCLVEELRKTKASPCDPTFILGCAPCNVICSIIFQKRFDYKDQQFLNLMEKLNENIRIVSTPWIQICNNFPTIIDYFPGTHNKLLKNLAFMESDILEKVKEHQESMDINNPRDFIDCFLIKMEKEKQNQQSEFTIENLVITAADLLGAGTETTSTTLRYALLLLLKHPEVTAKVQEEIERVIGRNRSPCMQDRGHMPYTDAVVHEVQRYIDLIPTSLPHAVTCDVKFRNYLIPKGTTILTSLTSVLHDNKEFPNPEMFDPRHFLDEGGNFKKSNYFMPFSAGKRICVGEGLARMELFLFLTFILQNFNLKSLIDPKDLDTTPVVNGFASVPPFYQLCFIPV
# assay_procedure: Cytochrome P450 Family 2 Subfamily C Member 19 (CYP2C19) small molecule antagonists: luciferase reporter qHTS assay (AID 1671197); note: nearly all actives have a fitted effect of over 65% in size
# run_parameters: P450-Glo CYP2C19 enzyme, luciferin luminescence, 1 h; series mostly up to 115 µM
Records with an inconclusive call do not appear. Calls of active or inactive are those of the source. Calls come from the whole dose curve; as a rule, active = well fitted inhibition curve with a large enough effect in the repeat runs; inconclusive = weak or mixed curves; inactive = no such curve, though single readings can be large or run the other way.
Permitted responses: active, inactive

# example entries with known answers
Cc1ncc([N+](=O)[O-])n1CCO    inactive
C1=CC2C3C=CC(C3)C2C1 (configuration not stated)    inactive
Cc1cn([C@H]2C=C[C@@H](CO)O2)c(=O)[nH]c1=O    inactive
CC1(C)S[C@@H]2[C@H](NC(=O)[C@H](N)c3ccccc3)C(=O)N2[C@H]1C(=O)O    inactive
CN[C@H]1CC[C@@H](c2ccc(Cl)c(Cl)c2)c2ccccc21    active
O=C1O[C@H]([C@@H](O)CO)C(O)=C1O    inactive
CCN(Cc1c(F)cccc1Cl)c1c([N+](=O)[O-])cc(C(F)(F)F)cc1[N+](=O)[O-]    active
C[C@](N)(Cc1ccc(O)c(O)c1)C(=O)O    inactive

Prompt line: Can you look up the reported call for CN1CCc2cccc3c2[C@H]1Cc1ccc(O)c(O)c1-3 for me?
Response line: inactive

Prompt line: Can you look up the reported call for CC(=O)CCC(=O)O for me?
Response line: inactive

Prompt line: Can you look up the reported call for CN(N=O)C(=O)N[C@@H]1[C@@H](O)[C@H](O)[C@@H](CO)O[C@@H]1O for me?
Response line: inactive

Prompt line: Can you look up the reported call for O=C1c2c(O)cccc2Cc2cccc(O)c21 for me?
Response line: inactive
